Data origin, for the record: the MegaScale stability set (Tsuboyama et al. 2023)

B1: EEHEE_rd3_1049 (parent)
chain: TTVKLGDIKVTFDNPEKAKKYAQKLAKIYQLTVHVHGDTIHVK

- Variants of: B1
- assay-comment: folding stability dG (cDNA display proteolysis); higher = more stable
- condition-parameters: PBS, room temperature
readout-label: folding stability dG

Please look at this variant and report its folding stability dG: Y29R 0.806 kcal/mol

Please look at this variant and report its folding stability dG: V42C 1.79 kcal/mol

Please look at this variant and report its folding stability dG: T1F 2.42 kcal/mol

Please look at this variant and report its folding stability dG: H36A 2.12 kcal/mol

Please look at this variant and report its folding stability dG: T2R 1.03 kcal/mol

Others:
Please look at this variant and report its folding stability dG: L5K 0.76 kcal/mol
